System: K562
Assay: cells
Design: SRB anti-proliferation assay against a panel of human tumour cell lines
Conditions: Homo sapiens, K562; read-out: IC50 (μM) S9
Method: The anti-proliferative activity of S9 was measured with SRB assay against a panel of human tumor cells, including oral epidermoid cancer, lung cancer, liver cancer, colon cancer, rhabdomyosarcoma, ovarian cancer, osteosarcoma, breast cancer, cervix cancer, stomach cancer, prostate cancer and leukemia cells. […] RF was calculated as the ratio of the IC50 value of the drug-resistant cells to that of the corresponding parental cells. […] Apoptosis was measured by Annexin V-PI double staining. […]
VALUE TYPE: IC50 (µM)

1) C=C1CC(Cn2c(-c3ccccc3)cc3cc(OCOC)ccc32)OC1=O (stereo not shown): 2.2

----------
target: tubulin; construct: purified tubulin (Cytoskeleton, Denver) immobilized on CM5 chip; with alpha-tubulin; test: SPR (Biacore); supported by colchicine fluorescence competition, polymerization of purified pork tubulin and CD
pKd: −log10 of the molar value.
VALUE TYPE: pKd

1. C=C1CC(Cn2c(-c3ccccc3)cc3cc(OCOC)ccc32)OC1=O (stereo not shown) [S9]: 4.95

----------
tested on: BEL-7402; assay: cells; set-up: SRB anti-proliferation assay against a panel of human tumour cell lines; details: Homo sapiens, Bel-7402; read-out: IC50 (μM) S9
VALUE TYPE: IC50 (µM)

1) C=C1CC(Cn2c(-c3ccccc3)cc3cc(OCOC)ccc32)OC1=O (stereo not shown): 11.8

----------
tested on: U2OS; assay: cells; parameters: SRB anti-proliferation assay against a panel of human tumour cell lines; details: Homo sapiens, U2OS; read-out: IC50 (μM) S9
VALUE TYPE: IC50 (µM)

1. C=C1CC(Cn2c(-c3ccccc3)cc3cc(OCOC)ccc32)OC1=O (stereo not shown): 5.9

----------
test system: Hela; assay: cells; design: SRB anti-proliferation assay against a panel of human tumour cell lines; conditions: Homo sapiens, HeLa; read-out: IC50 (μM) S9
VALUE TYPE: IC50 (µM)

1. C=C1CC(Cn2c(-c3ccccc3)cc3cc(OCOC)ccc32)OC1=O (stereo not shown): 6.36

----------
system: HCT-116; assay: cells; set-up: SRB anti-proliferation assay against a panel of human tumour cell lines; conditions: Homo sapiens, HCT-116; read-out: IC50 (μM) wortmannin
VALUE TYPE: IC50

1) COC[C@H]1OC(=O)c2coc3c2[C@@]1(C)C1=C(C3=O)[C@@H]2CCC(=O)[C@@]2(C)C[C@H]1OC(C)=O: 41.5 µM

----------
system: K562/G01; assay: cells; set-up: SRB anti-proliferation assay against a panel of human tumour cell lines; conditions: Homo sapiens, K562; read-out: IC50 (μM) S9
VALUE TYPE: IC50 (µM)

1) C=C1CC(Cn2c(-c3ccccc3)cc3cc(OCOC)ccc32)OC1=O (stereo not shown) [S9]: 2.17

----------
system: K562/A02; experiment: cells; parameters: SRB anti-proliferation assay against a panel of human tumour cell lines; conditions: Homo sapiens, K562/A02; read-out: IC50 (μM) S9
VALUE TYPE: IC50

1. C=C1CC(Cn2c(-c3ccccc3)cc3cc(OCOC)ccc32)OC1=O (stereo not shown): 2.5 µM

----------
system: NCI-H23; experiment: cells; design: SRB anti-proliferation assay against a panel of human tumour cell lines; details: Homo sapiens, NCI-H23; read-out: IC50 (μM) S9
VALUE TYPE: IC50 (µM)

1) C=C1CC(Cn2c(-c3ccccc3)cc3cc(OCOC)ccc32)OC1=O (stereo not shown): 9.02

----------
System: NCI-H23
Assay: cells
Parameters: SRB anti-proliferation assay against a panel of human tumour cell lines
Details: Homo sapiens, NCI-H23; read-out: IC50 (μM) wortmannin
Description: The anti-proliferative activity of S9 was measured with SRB assay against a panel of human tumor cells, including oral epidermoid cancer, lung cancer, liver cancer, colon cancer, rhabdomyosarcoma, ovarian cancer, osteosarcoma, breast cancer, cervix cancer, stomach cancer, prostate cancer and leukemia cells. […] RF was calculated as the ratio of the IC50 value of the drug-resistant cells to that of the corresponding parental cells. […] Apoptosis was measured by Annexin V-PI double staining. […]
VALUE TYPE: IC50 (µM)

1) COC[C@H]1OC(=O)c2coc3c2[C@@]1(C)C1=C(C3=O)[C@@H]2CCC(=O)[C@@]2(C)C[C@H]1OC(C)=O [wortmannin]: 5.57

----------
test system: SGC-7901; experiment: cells; parameters: SRB anti-proliferation assay against a panel of human tumour cell lines; conditions: Homo sapiens, SGC-7901; read-out: IC50 (μM) wortmannin
VALUE TYPE: IC50 (µM)

1) COC[C@H]1OC(=O)c2coc3c2[C@@]1(C)C1=C(C3=O)[C@@H]2CCC(=O)[C@@]2(C)C[C@H]1OC(C)=O: 3.94

----------
system: MKN-28; assay: cells; set-up: SRB anti-proliferation assay against a panel of human tumour cell lines; settings: Homo sapiens, MKN-28; read-out: IC50 (μM) wortmannin
VALUE TYPE: IC50

1. COC[C@H]1OC(=O)c2coc3c2[C@@]1(C)C1=C(C3=O)[C@@H]2CCC(=O)[C@@]2(C)C[C@H]1OC(C)=O: 12.8 µM

----------
system: KB-V1; assay: cells; parameters: SRB anti-proliferation assay against a panel of human tumour cell lines; details: Homo sapiens, KB-V1; read-out: IC50 (μM) S9
VALUE TYPE: IC50 (µM)

1. C=C1CC(Cn2c(-c3ccccc3)cc3cc(OCOC)ccc32)OC1=O (stereo not shown) [S9]: 13.3

----------
Test system: U2OS
Experiment: cells
Parameters: SRB anti-proliferation assay against a panel of human tumour cell lines
Details: Homo sapiens, U2OS; read-out: IC50 (μM) wortmannin
Method: The anti-proliferative activity of S9 was measured with SRB assay against a panel of human tumor cells, including oral epidermoid cancer, lung cancer, liver cancer, colon cancer, rhabdomyosarcoma, ovarian cancer, osteosarcoma, breast cancer, cervix cancer, stomach cancer, prostate cancer and leukemia cells. […] RF was calculated as the ratio of the IC50 value of the drug-resistant cells to that of the corresponding parental cells. […] Apoptosis was measured by Annexin V-PI double staining. […]
VALUE TYPE: IC50 (µM)

1) COC[C@H]1OC(=O)c2coc3c2[C@@]1(C)C1=C(C3=O)[C@@H]2CCC(=O)[C@@]2(C)C[C@H]1OC(C)=O: 26.7
